assay: NCI Yeast Anticancer Drug Screen. Data for the cln2 rad14 strain (AID 165);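 further: 0% = growth equal to vehicle treated cultures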; details: S. cerevisiae cln2 rad14 strain, at 50.0 µM, hits give high values
The panel holds about 79,000 compounds, 15% with a hit somewhere; the sample as a whole holds those more often.
Result Type: growth inhibition (%)

[[record]]
molecule = "CNC(P(=O)([O-])[O-])P(=O)([O-])[O-].N.N.[Pt+2]"
result_type = "growth inhibition"
measured_value = -17.1

[[record]]
molecule = "CC(C)CC(C)(c1ccc(O)cc1)c1ccc(O)cc1"
result_type = "growth inhibition"
measured_value = 92.6

[[record]]
molecule = "c1ccc(-c2cccc(-c3ccccc3)c2)cc1"
result_type = "growth inhibition"
measured_value = -0.6

[[record]]
molecule = "N[C@H](Cc1ccc2oc3cc(=O)c4ccccc4c-3nc2c1)C(=O)O"
result_type = "growth inhibition"
measured_value = 15.1

[[record]]
molecule = "CC[CH2][Pb]([CH2]CC)([CH2]CC)[NH]S(=O)(=O)c1ccc(C)cc1"
result_type = "growth inhibition"
measured_value = 97.9

[[record]]
molecule = "O.O.[NH-]C1(C(=O)O)CCCC1.[NH-]C1(C(=O)O)CCCC1.[Ni+2]"
result_type = "growth inhibition"
measured_value = 19.4

[[record]]
molecule = "COc1ccc(C[As+](c2ccccc2)(c2ccccc2)c2ccccc2)cc1"
result_type = "growth inhibition"
measured_value = 97

[[record]]
molecule = "COC1OC(OC)[CH]([Hg][Cl])C1OC (centres undefined)"
result_type = "growth inhibition"
measured_value = 98.5

[[record]]
molecule = "CC(=O)OC1CCC2(C)C3CCC4(C)C(Oc5ccccc5)CCC4C3CC(Br)C2(O)C1 (centres undefined)"
result_type = "growth inhibition"
measured_value = 2.75

[[record]]
molecule = "O=C1[O][Hg][c]2c1cccc2[N+](=O)[O-]"
result_type = "growth inhibition"
measured_value = 97.6

[[record]]
molecule = "c1ccc(N=c2snc(-c3ccccc3)s2)cc1"
result_type = "growth inhibition"
measured_value = 6.4

[[record]]
molecule = "CC(Cl)CC(=O)OCC1CCCN2CCCCC12 (centres undefined)"
result_type = "growth inhibition"
measured_value = 41.8

[[record]]
molecule = "C1CC2CCC(N3CCCC3)C(C1)C21OCCO1 (centres undefined)"
result_type = "growth inhibition"
measured_value = -3.2

[[record]]
molecule = "O=C(O)CC(=O)O.[Co+2].[NH-]CC(=O)O.[NH-]CC(=O)O"
result_type = "growth inhibition"
measured_value = 0.8

[[record]]
molecule = "Clc1ccc(Br)cc1"
result_type = "growth inhibition"
measured_value = -7.95

[[record]]
molecule = "CCC1(c2ccccc2)C(=O)N(CCCl)C(=O)N(CCCl)C1=O"
result_type = "growth inhibition"
measured_value = -21.7

[[record]]
molecule = "CCCCOP(=O)(OCCCC)Oc1cccc([N+](=O)[O-])c1"
result_type = "growth inhibition"
measured_value = 28.2

[[record]]
molecule = "O=C1NC(=O)C(CC(C(=O)C(=O)Nc2ccccc2Cl)C(=O)c2ccc3ccccc3c2)C(=O)N1 (centres undefined)"
result_type = "growth inhibition"
measured_value = -32.8

[[record]]
molecule = "CCC1CN2CCC3(C(=O)Nc4ccccc43)C2CC1/C(=C/OC)C(=O)OC (centres undefined)"
result_type = "growth inhibition"
measured_value = 2.55

[[record]]
molecule = "N#CCCCCl"
result_type = "growth inhibition"
measured_value = 26.1

[[record]]
molecule = "C(=P(c1ccccc1)(c1ccccc1)c1ccccc1)[P+](c1ccccc1)(c1ccccc1)c1ccccc1.[Cl][Fe]([Cl])([Cl])[Br]"
result_type = "growth inhibition"
measured_value = 99.2

[[record]]
molecule = "O=C([O-])C(F)(F)C(F)(F)F.[C-]#[O+].[C-]#[O+].[C-]#[O+].[C-]#[O+].[C-]#[O+].[Re]"
result_type = "growth inhibition"
measured_value = 68.5

[[record]]
molecule = "O=P(OCCCCl)(OCCCCl)C(Cl)(Cl)Cl"
result_type = "growth inhibition"
measured_value = 6.85

[[record]]
molecule = "O=C1c2ccccc2CCC1Br (centres undefined)"
result_type = "growth inhibition"
measured_value = 98.6

[[record]]
molecule = "C/C(CC(=O)Nc1ccc([N+](=O)[O-])cc1)=N\\Nc1ccc([N+](=O)[O-])cc1[N+](=O)[O-]"
result_type = "growth inhibition"
measured_value = -33.9

[[record]]
molecule = "c1ccc(N2CCNCC2)nc1"
result_type = "growth inhibition"
measured_value = 6.9

[[record]]
molecule = "CCC[CH2][Sn]1([CH2]CCC)[O]C(=O)CN=Cc2ccccc2[O]1"
result_type = "growth inhibition"
measured_value = 90.8

[[record]]
molecule = "CC(=O)SCCC(NC(=S)Nc1ccccc1)P(=O)(Oc1ccccc1)Oc1ccccc1 (centres undefined)"
result_type = "growth inhibition"
measured_value = -11.9

[[record]]
molecule = "O=C1CN=CN1"
result_type = "growth inhibition"
measured_value = -12.6

[[record]]
molecule = "O=C(C1C(c2ccccc2)N1C1CCCCC1)C1C(c2ccccc2)N1C1CCCCC1 (centres undefined)"
result_type = "growth inhibition"
measured_value = -5.1

[[record]]
molecule = "CC(=O)OCC12CCC(C)=CC1OC1C(N(C)C)C(O)C2(C)C12CO2 (centres undefined)"
result_type = "growth inhibition"
measured_value = 39.1

[[record]]
molecule = "C/C(=C\\c1ccc(Cl)c(Cl)c1)[N+](=O)[O-]"
result_type = "growth inhibition"
measured_value = -14.3

[[record]]
molecule = "COC(=O)C[CH2][Sn]([CH2]CC(=O)OC)([c]1ccccc1)[c]1ccccc1"
result_type = "growth inhibition"
measured_value = -15.7

[[record]]
molecule = "CN1CCc2ccc(O)cc2C1"
result_type = "growth inhibition"
measured_value = -7.5

[[record]]
molecule = "O=c1oc2cc(O)ccc2c(O)c1C(c1ccc(/C=C/c2ccccc2)cc1)c1c(O)c2ccc(O)cc2oc1=O"
result_type = "growth inhibition"
measured_value = 90.7

[[record]]
molecule = "CCC1CN2CCc3cc(OC)c(OC)cc3C2CC1CC1c2cc(OC)c(OC)cc2CCN1C(=O)C(N)Cc1ccccc1 (centres undefined)"
result_type = "growth inhibition"
measured_value = -3.05

[[record]]
molecule = "O=[N+]([O-])c1ccc(NC(c2ccccc2)P(=O)(Oc2ccccc2)Oc2ccccc2)cc1 (centres undefined)"
result_type = "growth inhibition"
measured_value = -6

[[record]]
molecule = "Clc1cccc2c(N3CC3)cnnc12"
result_type = "growth inhibition"
measured_value = 1.4

[[record]]
molecule = "COc1cc([C@@H]2c3cc(O)c(OC)cc3C[C@H]3C(=O)OC[C@@H]23)ccc1O"
result_type = "growth inhibition"
measured_value = 10.3

[[record]]
molecule = "CN(N=O)C1=NC2(CCCCC2)P(=O)(NNc2ncccn2)O1 (centres undefined)"
result_type = "growth inhibition"
measured_value = 9.85

[[record]]
molecule = "[CH3][Sn]([CH3])([S]CCS(=O)(=O)O)[S]CCS(=O)(=O)O"
result_type = "growth inhibition"
measured_value = -5.95

[[record]]
molecule = "CO[C@@]12[C@@H]3N[C@@H]3CN1C1=C(C(=O)C(NCC3CCCO3)=C(C)C1=O)[C@@H]2COC(N)=O (some centres undefined)"
result_type = "growth inhibition"
measured_value = 17.1

[[record]]
molecule = "CC(C)NCC(=O)c1ccc(O)c(O)c1"
result_type = "growth inhibition"
measured_value = -7.25

[[record]]
molecule = "C(=Nc1ccccc1)C1CCCC[N-]1.C(=Nc1ccccc1)C1CCCC[N-]1.[Cu+2].[O-][Cl+3]([O-])([O-])O (centres undefined)"
result_type = "growth inhibition"
measured_value = 92.5

